Examples of compounds with documented MIC follow.
tested on: Pseudomonas aeruginosa; experiment: Antimicrobial activity against beta-lactam resistant Pseudomonas aeruginosa PAOD1 harboring oprD spontaneous mutant selected in vitro after antipseudomonal treatment of intensive care unit patient by broth microdilution method; format: functional

Example results:
compound	system.name	MIC
CCN1CCN(C(=O)N[C@@H](C(=O)N[C@@H]2C(=O)N3[C@@H]2SC(C)(C)[C@@H]3C(=O)O)c2ccccc2)C(=O)C1=O [PIPERACILLIN]	Pseudomonas aeruginosa	> 256 mg/L
CC(C)(O/N=C(\C(=O)N[C@@H]1C(=O)N2C(C(=O)[O-])=C(C[n+]3ccccc3)CS[C@H]12)c1csc(N)n1)C(=O)O [CEFTAZIDIME]	Pseudomonas aeruginosa	2 mg/L
C[C@@H](O)[C@H]1C(=O)N2C(C(=O)O)=C(SCCNC=N)C[C@H]12 [IMIPENEM ANHYDROUS]	Pseudomonas aeruginosa	16 mg/L
C[C@@H](O)[C@H]1C(=O)N2C(C(=O)O)=C(S[C@@H]3CN[C@H](C(=O)N(C)C)C3)[C@H](C)[C@H]12 [MEROPENEM]	Pseudomonas aeruginosa	1 mg/L

Now consider a different compound.
GET /values?item= Cn1c(N)c(NC(=O)NCCN)c[n+]1CC1=C(C(=O)O)N2C(=O)[C@@H](NC(=O)/C(=N\OC(C)(C)C(=O)[O-])c3nsc(N)n3)[C@H]2SC1 [CEFTOLOZANE] &system= Pseudomonas aeruginosa returns MIC: 0.5 mg/L

----------
test system: Pseudomonas aeruginosa; experiment: Antimicrobial activity against beta-lactam resistant Pseudomonas aeruginosa PAOD2 harboring oprD spontaneous mutant and deficient in dacB gene selected in vitro after antipseudomonal treatment of intensive care unit patient by broth microdilution method; assay type: functional
measurement.kind: MIC (µg/mL)
Give the value in µg/mL but do not write µg/mL after it.

molecule	MIC / µg/mL
C[C@@H](O)[C@H]1C(=O)N2C(C(=O)O)=C(SCCNC=N)C[C@H]12 [IMIPENEM ANHYDROUS]	16
CO/N=C(\C(=O)N[C@@H]1C(=O)N2C(C(=O)[O-])=C(C[N+]3(C)CCCC3)CS[C@H]12)c1csc(N)n1	32
C[C@@H](O)[C@H]1C(=O)N2C(C(=O)O)=C(S[C@@H]3CN[C@H](C(=O)N(C)C)C3)[C@H](C)[C@H]12 [MEROPENEM]	4
C[C@H]1[C@H](NC(=O)/C(=N\OC(C)(C)C(=O)O)c2csc(N)n2)C(=O)N1S(=O)(=O)O [AZTREONAM]	32
Cn1c(N)c(NC(=O)NCCN)c[n+]1CC1=C(C(=O)O)N2C(=O)[C@@H](NC(=O)/C(=N\OC(C)(C)C(=O)[O-])c3nsc(N)n3)[C@H]2SC1 [CEFTOLOZANE]	0.5

Briefly, MIC measured for CC(C)(O/N=C(\C(=O)N[C@@H]1C(=O)N2C(C(=O)[O-])=C(C[n+]3ccccc3)CS[C@H]12)c1csc(N)n1)C(=O)O [CEFTAZIDIME] : 32

Briefly, MIC measured for CCN1CCN(C(=O)N[C@@H](C(=O)N[C@@H]2C(=O)N3[C@@H]2SC(C)(C)[C@@H]3C(=O)O)c2ccccc2)C(=O)C1=O [PIPERACILLIN] : 64

----------
tested on: Pseudomonas aeruginosa; test: Antimicrobial activity against beta-lactam resistant Pseudomonas aeruginosa PAO1 deficient in ampD gene selected in vitro after antipseudomonal treatment of intensive care unit patient by broth microdilution method; assay type: functional
Examples of compounds with documented MIC follow.
Give the value in µg/mL but do not write µg/mL after it.

compound	MIC (µg/mL)
C[C@@H](O)[C@H]1C(=O)N2C(C(=O)O)=C(S[C@@H]3CN[C@H](C(=O)N(C)C)C3)[C@H](C)[C@H]12	2
CCN1CCN(C(=O)N[C@@H](C(=O)N[C@@H]2C(=O)N3[C@@H]2SC(C)(C)[C@@H]3C(=O)O)c2ccccc2)C(=O)C1=O	16
C[C@@H](O)[C@H]1C(=O)N2C(C(=O)O)=C(SCCNC=N)C[C@H]12 [IMIPENEM ANHYDROUS]	2

Briefly, MIC measured for `Cn1c(N)c(NC(=O)NCCN)c[n+]1CC1=C(C(=O)O)N2C(=O)[C@@H](NC(=O)/C(=N\OC(C)(C)C(=O)[O-])c3nsc(N)n3)[C@H]2SC1` : 0.5

Briefly, MIC measured for `CC(C)(O/N=C(\C(=O)N[C@@H]1C(=O)N2C(C(=O)[O-])=C(C[n+]3ccccc3)CS[C@H]12)c1csc(N)n1)C(=O)O` : 8
